Data credit: patent EP4786467A1

Experiment: Mouse Pharmacokinetic Experiment (plasma and brain)
Type: in vivo, Male ICR mice
Settings: in vivo; mouse brain tissue; oral (po) dose 1 mg/kg
Method: Animal: Male ICR mice. Animals were randomly assigned to the treatment group and fasted for 12 hours before administration. Drug to be tested: The compounds were dissolved in solvent (0.5% CMC-Na). The intravenous (iv) dose was 0.3 mg/kg, with an administration volume of 5 ml/kg; the oral (po) dose was 1 mg/kg, with an administration volume of 10 mL/kg body weight. […] Data Analysis: Drug concentrations below the limit of quantitation (LLOQ) were recorded as zero. […]
QUANTITY_NAME: Cmax (ng/g)
Answer in ng/g, number only, no unit symbol.

Req: Given the molecule "O=C1CCc2ccc(CCN3CCN(c4cc(F)cc5c4CCO5)CC3)cc2N1" , what is its reported Cmax?
Resp: 413
